Target: Cytochrome P450 2C19 (Homo sapiens)
Experiment: Cytochrome P450 Family 2 Subfamily C Member 19 (CYP2C19) small molecule antagonists: luciferase reporter qHTS assay (AID 1671197); note: nearly all actives have a fitted effect of over 65% in size
Settings: P450-Glo CYP2C19 enzyme, luciferin luminescence, 1 h; series mostly up to 52.9 µM
Results filed as inconclusive are left out. Calls of active or inactive are those of the source. Calls come from the whole dose curve; as a rule, active = well fitted inhibition curve with a large enough effect in the repeat runs; inconclusive = weak or mixed curves; inactive = no such curve, though single readings can be large or run the other way.
Field 'call' accepts active, inactive

Worked cases, answers included:
MOLECULE: CN1CCCN=C1COC(=O)C(O)(c1ccccc1)C1CCCCC1 (stereo not given)
TEST SYSTEM: Cytochrome P450 2C19 (Homo sapiens)
CLASS ASSIGNMENT: inactive
//
MOLECULE: O=c1cc(-c2ccccc2)oc2ccc3ccccc3c12
TEST SYSTEM: Cytochrome P450 2C19 (Homo sapiens)
CLASS ASSIGNMENT: active
//
MOLECULE: CC1CC(C)C(=O)C1=O (stereo not given)
TEST SYSTEM: Cytochrome P450 2C19 (Homo sapiens)
CLASS ASSIGNMENT: inactive
//
MOLECULE: C=C/C(C)=C/C/C=C(\C)CCC=C(C)C
TEST SYSTEM: Cytochrome P450 2C19 (Homo sapiens)
CLASS ASSIGNMENT: active
//
MOLECULE: O=C(CCc1ccc(O)cc1)c1c(O)cc(O)cc1O
TEST SYSTEM: Cytochrome P450 2C19 (Homo sapiens)
CLASS ASSIGNMENT: active

Req: Recorded call for C=C1C[C@@]23CC[C@H]4[C@@](C)(CCC[C@@]4(C)C(=O)O[C@@H]4O[C@H](CO)[C@@H](O)[C@H](O)[C@H]4O)[C@@H]2CC[C@]1(O[C@@H]1O[C@H](CO)[C@@H](O)[C@H](O[C@@H]2O[C@H](CO)[C@@H](O)[C@H](O)[C@H]2O)[C@H]1O[C@@H]1O[C@H](CO)[C@@H](O)[C@H](O)[C@H]1O)C3 ?
Resp: inactive

Req: Could you please tell me the result logged for O[C@@H]1CO[C@H]2[C@@H]1OC[C@@H]2O in this assay?
Resp: inactive

Req: Each molecule tested received a call. Report the one for C=Cc1ccc(S(=O)(=O)O)cc1 .
Resp: inactive

Req: Can you look up the reported call for O=C1c2ccccc2C(=O)C1(O)O for me?
Resp: active

Req: What did the test return for CC(=O)c1ccc([N+](=O)[O-])cc1 ?
Resp: active

----------
Assay: qHTS RealTime-Glo MT Cell Viability Assay in HepG2 cells - 16 hour (AID 1224885); note: nearly all actives have a fitted effect of over 50% in size
Details: RealTime-Glo luminescence; series mostly up to 76.8 µM
Results filed as inconclusive are left out. Activity calls are given as the source filed them. The call rests on the fitted dose curve; in most records, active means well fitted cell-killing curve with a large enough effect in the repeat runs; inconclusive means weak or mixed curves; inactive means flat fitted curve, though single readings scatter.
Use one of these outcomes when replying: T (active), F (inactive)

Req: Which outcome was entered for the compound CCOC(=O)c1ccc(I)cc1 in this test?
Resp: F

Req: What was the test verdict on O=C1c2ccccc2C(=O)C1(O)O ?
Resp: F

Req: Could you please tell me the result logged for CC[N+](CC)(CCNC(=O)C(=O)NCC[N+](CC)(CC)Cc1ccccc1Cl)Cc1ccccc1Cl in this assay?
Resp: F

----------
Test: Caspase-3/7 induction in HepG2 cells by small molecules, qHTS cell viability counter screen (AID 1346981); note: nearly all actives have a fitted effect of over 30% in size
Conditions: CellTiter-Fluor fluorescence, 17 h; series mostly up to 92.4 µM
Records with an inconclusive call do not appear. Calls of active or inactive are those of the source. The call rests on the fitted dose curve; in most records, active means well fitted cell-killing curve with a large enough effect in the repeat runs; inconclusive means weak or mixed curves, or effect the other way; inactive means flat fitted curve, though single readings scatter.
Respond using exactly one of the listed classes: active, inactive

Some entries whose results are on file:
COMPOUND: O=C1NC(=O)c2cc([N+](=O)[O-])ccc21
CLASS ASSIGNMENT: inactive

COMPOUND: Cc1cscn1
CLASS ASSIGNMENT: inactive

COMPOUND: CCC1NC(=O)c2cc(S(N)(=O)=O)c(Cl)cc2N1 (configuration not stated)
CLASS ASSIGNMENT: inactive

COMPOUND: CCC1CO1 (configuration not stated)
CLASS ASSIGNMENT: inactive

COMPOUND: CC1CC(C)C(=O)C1=O (configuration not stated)
CLASS ASSIGNMENT: inactive

Req: Lab log entry: CCn1cc(C(=O)O)c(=O)c2cc(F)c(N3CCNCC3)cc21 — outcome as called in the assay?
Resp: inactive

Req: What is the recorded call for this compound in the test? FC(F)(F)c1ccccc1Cl
Resp: inactive

Req: Record lookup: outcome of this test for Cc1ccco1 ?
Resp: inactive

Req: Check the results log: what was the call for O=C(Nc1cccc2c(=O)cc(-c3nn[nH]n3)oc12)c1ccc(OCCCCc2ccccc2)cc1 ?
Resp: inactive

Req: Record lookup: outcome of this test for CCOC(=O)C1=C(C)NC(C)=C(C(=O)OC)C1c1cccc(Cl)c1Cl (configuration not stated) ?
Resp: inactive

Cited source: PubChem BioAssay (Tox21)
